These measurements were taken from PubChem BioAssay (NCI).

Each entry below carries its reported growth.
# Test system: HS 578T breast
# PROCEDURE_TEXT: NCI-60 one-dose screen, 48 h (100 = growth as untreated, 0 = no growth, -100 = all killed)
# CONDITIONS: 10 µM unless noted
Compounds without any hit were thinned out: in the full panel of roughly 83,000, 20% have a hit. Calls of active or inactive are those of the source. Rule for the calls: active = growth percent below 10; inactive = the rest.

MOLECULE	growth
C[C@H](CCC(=O)O)[C@H]1CC[C@H]2[C@@H]3CC[C@@H]4/C(=C\c5ccco5)C(=O)/C(=C\c5ccco5)C[C@]4(C)[C@H]3CC[C@]12C	69.3% (inactive)
C/C(=C(/c1ccc(O)cc1)c1ccc(OCCN2CCCC2)cc1)c1ccccc1	66.8% (inactive)
C=C1CCC2C3(C)COC(c4ccc(OC)cc4Br)OC3CCC2(C)C1/C=C/C1=CCOC1=O (centres undefined)	94.7% (inactive)
COc1ncc(-c2ccc3ncnc(Nc4cccc(Cl)c4)c3c2)cc1NS(C)(=O)=O	16.2% (inactive)

Memo: ClC1=C2NC=NC2n2c(nnc2-c2ccc(Cl)cc2)N1 (centres undefined) , reported growth: 112% (inactive)

Note to self: growth recorded for CC#Cc1nc2ccccc2c(=O)[nH]1 was 58.7% (inactive)

For reference, reported growth for C=C(C[n+]1ccccc1)[C@@H]1CC[C@]2(C(=O)OC)CC[C@]3(C)[C@H](CC[C@@H]4[C@@]5(C)CC[C@H](O)C(C)(C)[C@@H]5CC[C@]43C)[C@@H]12 stands at 101% (inactive)

Form field growth, entry CCC(C)[C@@H]1NC(=O)[C@@H]2CCCN2C(=O)[C@H](Cc2ccccc2)NC(=O)[C@@H]2CCCN2C(=O)[C@H](Cc2ccccc2)NC(=O)[C@@H]2CCCN2C(=O)[C@H](Cc2ccccc2)NC1=O (some centres undefined) : 106% (inactive)

growth reading for N=c1c2ccccc2nc2n1CCCCC2 : 95.4% (inactive)

In plain terms, CC/C=C\C[C@H](O)C/C=C1/C(=O)C=C[C@@H]1C/C=C\CCCC(N)=O has a documented growth of 55.2% (inactive)

So for CC(=O)C1=C(O)C=C2Oc3c(C(=O)/C=C/c4ccccc4)c(O)c(C)c(O)c3[C@]2(C)C1=O , the logged growth turned out to be 50% (inactive)

The molecule identified as O=C1Nc2ccccc2C12CC(c1ccc(Cl)cc1)=NN2 (centres undefined) registered its growth at 107% (inactive)

Note to self: growth recorded for N#Cc1c2c(nc3n[nH]c(N)c13)CCCC2 was 117% (inactive)

###

# System: SNB-75 CNS
# PROCEDURE_TEXT: NCI-60 one-dose screen, 48 h
# CONDITIONS: 10 µM unless noted
This is part of a sample that, as a whole, favours compounds with a hit. Of some 83,000 tested, about 20% had one in any assay. The source made the active and inactive calls. How the source made its calls: active means growth percent below 10; inactive means the rest.
Your answer must be one of the following: active, inactive

Past entries and their recorded results:
MOLECULE	ASSIGNED_CATEGORY
CCC(=O)OCc1cccc(OC)c1	inactive
O=C(CCCCN1CCOCC1)Nc1ccc(Cn2nnc3c2C(=O)c2nnn(Cc4ccc(NC(=O)CCCCN5CCOCC5)cc4)c2C3=O)cc1	active
COc1ccc(-c2nc(Nc3cc(C)[nH]n3)c3ccccc3n2)cc1	active
CCN(CC)CC(O)CNc1c2ccc([N+](=O)[O-])cc2nc2cc(OC)c(OC)cc12 (stereo not given)	active
CCN(CC)CCC(=O)c1ccc(OC)c2ccccc12	inactive
Oc1cccc(Nc2nccc(-c3ccc4ccccc4c3)n2)c1	inactive
COc1ccc(C(=O)c2sc3nc(-c4ccccc4OC)ccc3c2N)cc1OC	inactive
O=C([C@@H](COCc1ccccc1)N1C(=O)[C@@H](N2C(=O)OC[C@@H]2c2ccccc2)[C@H]1/C=C/c1ccccc1)N1CCC(CCN2CCCCC2)CC1	inactive

Look up the recorded call for O=c1cc(-c2ccccc2)[nH]c2ccccc12 in this test. inactive

What was the test verdict on COc1ccc(/C(=C/c2ccc3ccccc3c2)c2nn[nH]n2)cc1OC ? active
